Values were extracted from patent US5665721A.

- TESTED SYSTEM: UniProt P55263
- MEASUREMENT PROTOCOL: In vitro inhibition of adenosine kinase activity
- Type: biochemical
- TEST SETTINGS: Table 2, in vitro
- Protocol: The adenosine kinase to be inhibited can be located in vitro, in situ or in vivo. […] In vitro adenosine kinase activity can be measured using any of the standard procedures well known in the art. […] Inhibition is measured as the ability to inhibit phosphorylation of endogenous or externally applied ^14 C-adenosine by these cells. […]
pIC50: −log10 of the molar value.
QUANTITY NAME: pIC50

COMPOUND: O=C(N[C@H]1C[C@@H](n2cc(I)c3c(Cl)ncnc32)[C@H](O)[C@@H]1O)c1cccnc1
COMPARISON OPERATOR: =
QUANTITATIVE RESULT: 8.30
--
COMPOUND: CC(=O)N[C@H]1C[C@@H](n2cc(I)c3c(Cl)ncnc32)[C@H](OC(C)=O)[C@@H]1OC(C)=O [drawing 17 (R5=Cl)]
COMPARISON OPERATOR: <
QUANTITATIVE RESULT: 5.00
--
COMPOUND: N[C@H]1C[C@@H](n2cc(I)c3c(Cl)ncnc32)[C@@H]2OC(=O)O[C@@H]21 [drawing 21 (R=H, R5=Cl)]
COMPARISON OPERATOR: =
QUANTITATIVE RESULT: 8.60
--
COMPOUND: O=C(N[C@H]1C[C@@H](n2cc(I)c3c(O)ncnc32)[C@H](O)[C@@H]1O)C(F)(F)F [drawing 18 (R5=OH, R=CF3CO)]
COMPARISON OPERATOR: =
QUANTITATIVE RESULT: 6.70

###

- TESTED SYSTEM: adenosine kinase (Homo sapiens)
- Sequence (P55263 whole entry, species assumed): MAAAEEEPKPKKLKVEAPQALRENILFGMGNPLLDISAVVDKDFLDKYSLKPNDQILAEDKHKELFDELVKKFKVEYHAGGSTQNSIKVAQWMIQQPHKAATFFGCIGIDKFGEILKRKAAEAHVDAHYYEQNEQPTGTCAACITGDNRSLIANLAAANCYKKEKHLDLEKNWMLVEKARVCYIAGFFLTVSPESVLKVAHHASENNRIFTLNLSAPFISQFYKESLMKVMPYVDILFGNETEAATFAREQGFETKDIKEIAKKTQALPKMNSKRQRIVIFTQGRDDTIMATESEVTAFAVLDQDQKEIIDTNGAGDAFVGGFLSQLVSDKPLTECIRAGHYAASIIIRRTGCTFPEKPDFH
- MEASUREMENT PROTOCOL: In vitro inhibition of adenosine kinase activity
- Format: biochemical
- TEST SETTINGS: Table 2, in vitro
pIC50: −log10 of the molar value.
Examples of compounds with documented pIC50 follow.

COMPOUND: CC(C)(C)OC(=O)N[C@H]1C[C@@H](n2cc(I)c3c(N)ncnc32)[C@H](O)[C@@H]1O [drawing 18 (R5=NH2, R=NHBoc)]
TESTED SYSTEM: adenosine kinase (Homo sapiens)
COMPARISON OPERATOR: =
pIC50: 6.82
--
COMPOUND: O=C(N[C@H]1C[C@@H](n2cc(I)c3c(Cl)ncnc32)[C@H](O)[C@@H]1O)C(F)(F)F [drawing 18 (R5=Cl, R=CF3CO)]
TESTED SYSTEM: adenosine kinase (Homo sapiens)
COMPARISON OPERATOR: =
pIC50: 6.96
--
COMPOUND: CC(=O)O[C@@H]1[C@H](OC(C)=O)[C@@H](OC(C)=O)C[C@H]1n1cc(-c2ccccc2)c2c(Cl)ncnc21 [drawing 16 (R5=Cl, R6=Ph)]
TESTED SYSTEM: adenosine kinase (Homo sapiens)
COMPARISON OPERATOR: <
pIC50: 4.00
--
COMPOUND: CC(=O)N[C@H]1C[C@@H](n2cc(I)c3c(Cl)ncnc32)[C@H](O)[C@@H]1O [drawing 18 (R5=Cl, R=CH3CO)]
TESTED SYSTEM: adenosine kinase (Homo sapiens)
COMPARISON OPERATOR: =
pIC50: 6.46
--
COMPOUND: CC(=O)N[C@H]1C[C@@H](n2cc(I)c3c(Cl)ncnc32)[C@@H]2OC(=O)O[C@@H]21 [drawing 21 (R=CH3CO, R5=Cl)]
TESTED SYSTEM: adenosine kinase (Homo sapiens)
COMPARISON OPERATOR: =
pIC50: 5.20
--
COMPOUND: CC(=O)N[C@H]1C[C@@H](n2cc(I)c3c(N)ncnc32)[C@H](O)[C@@H]1O [drawing 18 (R5=NH2, R=CH3CO)]
TESTED SYSTEM: adenosine kinase (Homo sapiens)
COMPARISON OPERATOR: =
pIC50: 6.80
--
COMPOUND: CC(=O)N[C@H]1C[C@@H](n2cc(I)c3c(O)ncnc32)[C@@H]2OC(=O)O[C@@H]21 [drawing 21 (R=CH3CO, R5=OH)]
TESTED SYSTEM: adenosine kinase (Homo sapiens)
COMPARISON OPERATOR: =
pIC50: 5.40
--
COMPOUND: CC(=O)O[C@@H]1[C@H](OC(C)=O)[C@@H](OC(C)=O)C[C@H]1n1cc(C#Cc2ccccc2)c2c(C#Cc3ccccc3)ncnc21 [drawing 16 (R5=PhCC, R6=PhCC)]
TESTED SYSTEM: adenosine kinase (Homo sapiens)
COMPARISON OPERATOR: <
pIC50: 5.00

###

- TESTED SYSTEM: adenosine kinase (Homo sapiens)
- MEASUREMENT PROTOCOL: In vitro inhibition of adenosine kinase activity
- Type: biochemical
- TEST SETTINGS: Table 1, in vitro
pIC50: −log10 of the molar value.
Examples of compounds with documented pIC50 follow.
QUANTITY NAME: pIC50

COMPOUND: O[C@@H]1[C@H](O)[C@@H](O)C[C@H]1n1cc(-c2ccccc2)c2c(Cl)ncnc21 [drawing 13 (R5=Cl, R6=Ph)]
QUANTITY NAME: pIC50
COMPARISON OPERATOR: =
QUANTITATIVE RESULT: 7.35
//
COMPOUND: O[C@@H]1[C@H](O)[C@@H](O)C[C@H]1n1cc(Cl)c2c(Cl)ncnc21 [drawing 13 (R5=Cl, R6=Cl)]
QUANTITY NAME: pIC50
COMPARISON OPERATOR: =
QUANTITATIVE RESULT: 7.05
//
COMPOUND: Nc1ncnc2c1c(CCc1ccccc1)cn2[C@@H]1C[C@H](O)[C@@H](O)[C@H]1O [drawing 13 (R5=NH2, R6=PhCH2CH2)]
QUANTITY NAME: pIC50
COMPARISON OPERATOR: =
QUANTITATIVE RESULT: 6.52
//
COMPOUND: CN[C@H]1C[C@@H](n2cc(C)c3c(Cl)ncnc32)[C@H](O)[C@@H]1O [drawing 14 (R4=CH3NH, R5=Cl, R6=CH3)]
QUANTITY NAME: pIC50
COMPARISON OPERATOR: =
QUANTITATIVE RESULT: 6.52
//
COMPOUND: CN(C)[C@H]1C[C@@H](n2cc(I)c3c(Cl)ncnc32)[C@H](O)[C@@H]1O [drawing 14 (R4=(CH3)2N, R5=Cl, R6=I)]
QUANTITY NAME: pIC50
COMPARISON OPERATOR: =
QUANTITATIVE RESULT: 7.70
//
COMPOUND: O[C@@H]1[C@H](O)[C@@H](O)C[C@H]1n1cc(C#Cc2ccccc2)c2c(C#Cc3ccccc3)ncnc21 [drawing 13 (R5=PhCC, R6=PhCC)]
QUANTITY NAME: pIC50
COMPARISON OPERATOR: =
QUANTITATIVE RESULT: 7.82
//
COMPOUND: CC(C)(C)OC(=O)N(C(=O)OC(C)(C)C)[C@H]1C[C@@H](n2cc(I)c3c(Cl)ncnc32)[C@H](O)[C@@H]1O [drawing 14 (R4=Boc2N, R5=Cl, R6=I)]
QUANTITY NAME: pIC50
COMPARISON OPERATOR: <
QUANTITATIVE RESULT: 6.00
//
COMPOUND: O[C@@H]1[C@H](O)[C@@H](O)C[C@H]1n1cc(-c2ccccc2)c2c(Nc3ccccc3)ncnc21 [drawing 13 (R5=NHPh, R6=Ph)]
QUANTITY NAME: pIC50
COMPARISON OPERATOR: =
QUANTITATIVE RESULT: 8.52
//
COMPOUND: Nc1ncnc2c1c(I)cn2[C@@H]1C[C@H](O)[C@@H](O)[C@H]1O [drawing 13 (R5=NH2, R6=I)]
QUANTITY NAME: pIC50
COMPARISON OPERATOR: =
QUANTITATIVE RESULT: 7.89
//
COMPOUND: Nc1ncnc2c1c(-c1ccccc1)cn2[C@@H]1C[C@H](O)[C@@H](O)[C@H]1O [drawing 13 (R5=NH2, R6=Ph)]
QUANTITY NAME: pIC50
COMPARISON OPERATOR: =
QUANTITATIVE RESULT: 6.70
//
COMPOUND: CC(C)(C)OC(=O)N[C@H]1C[C@@H](n2cc(I)c3c(N)ncnc32)[C@H](O)[C@@H]1O [drawing 14 (R4=NHBoc, R5=NH2, R6=I)]
QUANTITY NAME: pIC50
COMPARISON OPERATOR: =
QUANTITATIVE RESULT: 7.82
//
COMPOUND: O[C@@H]1[C@H](O)[C@@H](O)C[C@H]1n1cc(I)c2c(Cl)ncnc21 [drawing 13 (R5=Cl, R6=I)]
QUANTITY NAME: pIC50
COMPARISON OPERATOR: =
QUANTITATIVE RESULT: 8.00
//
COMPOUND: O[C@@H]1[C@H](O)[C@@H](O)C[C@H]1n1cc(C#Cc2ccccc2)c2c(Cl)ncnc21 [drawing 13 (R5=Cl, R6=PhCC)]
QUANTITY NAME: pIC50
COMPARISON OPERATOR: =
QUANTITATIVE RESULT: 7.00
